Data origin, for the record: patent US20260116991A1

Biological target: T1, murine GPC3-His protein (murine, UniProt Q8CFZ4 25-558, limits assumed)
T1 construct: bought protein; also called murine GPC3 protein
T1 sequence (Q8CFZ4 25-558 limits assumed): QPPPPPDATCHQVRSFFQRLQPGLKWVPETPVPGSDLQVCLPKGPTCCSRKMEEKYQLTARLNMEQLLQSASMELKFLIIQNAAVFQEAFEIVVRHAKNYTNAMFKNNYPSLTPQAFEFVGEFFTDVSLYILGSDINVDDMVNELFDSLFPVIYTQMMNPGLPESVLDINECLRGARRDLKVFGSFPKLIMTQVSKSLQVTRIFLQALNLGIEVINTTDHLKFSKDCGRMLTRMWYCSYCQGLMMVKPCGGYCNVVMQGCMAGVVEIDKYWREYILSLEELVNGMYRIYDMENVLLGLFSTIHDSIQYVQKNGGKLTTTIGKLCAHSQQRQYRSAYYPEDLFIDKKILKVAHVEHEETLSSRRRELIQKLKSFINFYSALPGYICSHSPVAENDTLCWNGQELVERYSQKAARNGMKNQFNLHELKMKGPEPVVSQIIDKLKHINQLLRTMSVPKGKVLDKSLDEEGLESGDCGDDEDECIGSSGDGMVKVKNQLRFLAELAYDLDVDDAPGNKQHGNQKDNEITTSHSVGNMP
Assay: SPR, antibody captured on Protein A chip, murine GPC3-His injected
readout.type: koff (s⁻¹)
Just the number please, in s⁻¹, no unit attached.

koff lookup needed for F1.111.11 (antibody, human IgG1, kappa, V domains shown, human-murine chimeric antibody) VH: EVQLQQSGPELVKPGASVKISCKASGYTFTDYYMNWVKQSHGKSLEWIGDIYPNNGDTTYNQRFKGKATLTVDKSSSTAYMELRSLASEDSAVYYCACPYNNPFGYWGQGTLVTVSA VL: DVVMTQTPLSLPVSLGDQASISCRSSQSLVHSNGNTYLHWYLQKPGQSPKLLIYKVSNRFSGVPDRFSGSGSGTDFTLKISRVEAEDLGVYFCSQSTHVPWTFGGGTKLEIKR , thanks. 0.00045
